# Tested on: HepG2-CANX-COX4
# assayNotes: lowest phenotypically active concentration; higher = less potent
# assaySetup: treatment time: 24 h
Where a name gives a salt, the structure may show the parent alone.
Below, each entry is listed alongside its reported lowest phenotypically active concentration.

Solved entries (count: 3):
compound	experimentalTarget	endpointResult
Nc1nc(Cl)nc2c1ncn2[C@H]1C[C@H](O)[C@@H](CO)O1	HepG2-CANX-COX4	≤ 0.3 µM
CO[C@H]1C=CC=C(C)C(=O)NC2=CC(=O)C(NCCN(C)C)=C(C[C@@H](C)C[C@H](OC)[C@H](O)[C@@H](C)C=C(C)[C@@H]1OC(N)=O)C2=O [17-DMAG hydrochloride]	HepG2-CANX-COX4	≤ 0.3 µM
O=C(CCCCSc1nc(-c2ccc(-c3ccccc3)cc2)cc(=O)[nH]1)NO	HepG2-CANX-COX4	≤ 0.3 µM

Any idea what lowest phenotypically active concentration came out for "Cn1cnc2c(F)c(Nc3ccc(Br)cc3Cl)c(C(=O)NOCCO)cc21" on HepG2-CANX-COX4?
≤ 0.3 µM

Any idea what lowest phenotypically active concentration came out for CC1=C(C(=O)Nc2cc3cn[nH]c3cc2F)C(c2ccc(C(F)(F)F)cc2)CC(=O)N1 (centres undefined) on HepG2-CANX-COX4?
≤ 0.3 µM

Any idea what lowest phenotypically active concentration came out for "CCC(=O)N1CCN(c2ccc(-n3c(=O)ccc4cnc5ccc(-c6cnc7ccccc7c6)cc5c43)cc2C(F)(F)F)CC1" on HepG2-CANX-COX4?
≤ 0.3 µM

###

# System: A549-TP53BP1-CLTA
# assayNotes: phenotypically active (imaging signature differs from DMSO and reproducible) at any of 0.3-9 uM (binary (1 = active, 0 = inactive)); higher = active
# assaySetup: treatment time: 24 h
Counter-ions that a name gives are not always drawn.
Below, each entry is listed alongside its reported phenotypically active.
Please reply with the number alone, leaving off any unit.

molecule	phenotypically active
CCCC(=O)Nc1ncnc2c1ncn2[C@@H]1O[C@@H]2COP(=O)(O)O[C@H]2[C@H]1OC(=O)CCC [Dibutyryl-cAMP, sodium salt]	0

I have this molecule here, "Cc1ccc(-n2sc3ccccc3c2=O)cc1" , and I need its recorded phenotypically active.
0

I have this molecule here, CC(C)c1cnn2c(NCc3ccccc3)cc(NCCCCCCN)nc12 [BS 181 dihydrochloride] , and I need its recorded phenotypically active.
1

###

# Test system: WPMY1-TP53BP1-CLTA
# assayNotes: lowest phenotypically active concentration; higher = less potent
# assaySetup: treatment time: 24 h
Counter-ions that a name gives are not always drawn.
measurementLabel: lowest phenotypically active concentration (µM)
Write it as a number; the unit µM goes unstated.

Solved entries (count: 5):
compound	unitTag	endpointResult
C[C@H](NC(=O)c1sccc1OCc1ccc(Cl)cc1)c1ccccc1	µM	3
CCOC(=O)CCNc1cc(N2CCc3ccccc3CC2)nc(-c2ccccn2)n1	µM	3
COc1ccc(S(=O)(=O)N(CCO)c2ccccc2CN(C)C/C=C/c2ccc(Cl)cc2)cc1	µM	9
CC(C)(C)c1ccc(S(=O)(=O)/C=C/C#N)cc1	µM	9
C[C@@H]1CN(CC(=O)Nc2ccc3c(c2)Cc2cccc(-c4cc(=O)cc(N5CCOCC5)o4)c2S3)C[C@H](C)O1	µM	3

I have this compound here, Oc1cccc(Nc2ccnc3cc(-c4cccc(CN5CCOCC5)c4)sc23)c1 [LCB 03-0110 dihydrochloride] , and I need its recorded lowest phenotypically active concentration.
3

I have this compound here, "CCc1cccc(CC)c1NC(=O)N1Cc2[nH]nc(NC(=O)c3ccc(N4CCN(C)CC4)cc3)c2C1" , and I need its recorded lowest phenotypically active concentration.
1

I have this compound here, "O=c1cc(N2CCOCC2)oc2c(-c3cccc4c3sc3ccccc34)cccc12" , and I need its recorded lowest phenotypically active concentration.
3

###

Below, each entry is listed alongside its reported phenotypically active.
# System: HepG2-CANX-COX4
# assayNotes: phenotypically active (imaging signature differs from DMSO and reproducible) at any of 0.3-9 uM (binary (1 = active, 0 = inactive)); higher = active
# assaySetup: treatment time: 24 h
Please reply with the number alone, leaving off any unit.

Solved entries (count: 4):
compound	endpointResult
N#Cc1ccc(C(c2ccc(C#N)cc2)n2cncn2)cc1	0
CC(C)(Sc1ccc(CCN(CCCCC2CCCCC2)C(=O)NC2CCCCC2)cc1)C(=O)O	0
C#C[C@]1(O)CC[C@H]2[C@@H]3CCc4cc(OC)ccc4[C@H]3CC[C@@]21C	0
Cc1c(-c2ccccc2)oc2c(C(=O)OCCN3CCCCC3)cccc2c1=O [flavoxate]	0

Would you kindly look at the next entry?
I have this compound here, "CCN(CC)c1ccc(/C=N/NC(=O)c2ccncc2)c(O)c1" , and I need its recorded phenotypically active.
1

###

# Tested on: WPMY1-GM130-SQSTM1
# assayNotes: lowest phenotypically active concentration; higher = less potent
# assaySetup: treatment time: 24 h
measurementLabel: lowest phenotypically active concentration (µM)
Write it as a number; the unit µM goes unstated.

Solved entries (count: 8):
compound	unitTag	endpointResult
CN[C@H]1CC[C@@H](c2ccc(Cl)c(Cl)c2)c2ccccc21 [sertraline]	µM	3
COc1cc(N2CCN(C)CC2)ccc1Nc1nccc(-c2cn(C)c3cnccc23)n1	µM	1
CCN(CC)CCCC(C)Nc1ccnc2cc(Cl)ccc12 (centres undefined) [chloroquine]	µM	3
CNC1CCC2(C)C(=CCC3C2CCC24CN(C)C(C)C2CCC34)C1 (centres undefined) [Isoconessimine]	µM	3
CCCN[C@H]1CCc2nc(N)sc2C1 [pramipexole]	µM	9
C[C@]12CC[C@@H]3c4ccc(O)cc4CC[C@H]3[C@@H]1CC[C@@H]2OC(=O)CCC1CCCC1 [estradiol cypionate]	µM	9
CN1CCC(=C2c3ccccc3CC(=O)c3sccc32)CC1 [ketotifen]	µM	9
CN(C)CCCNc1c2c(=O)n(C)c(=O)nc-2n(C)c2ccccc12	µM	9

I have this compound here, "CC(C)(C)c1cc(/C=C(\C#N)C(N)=S)cc(C(C)(C)C)c1O" , and I need its recorded lowest phenotypically active concentration.
9

###

# System: HepG2-CANX-COX4
# assayNotes: phenotypically active (imaging signature differs from DMSO and reproducible) at any of 0.3-9 uM (binary (1 = active, 0 = inactive)); higher = active
# assaySetup: treatment time: 24 h
Counter-ions that a name gives are not always drawn.
Below, each entry is listed alongside its reported phenotypically active.
Please reply with the number alone, leaving off any unit.

Solved entries (count: 2):
compound	phenotypically active
Cc1c(C)c2c(c(C)c1O)CC[C@@](C)(CCC[C@H](C)CCC[C@H](C)CCCC(C)C)O2 [Tocopherol (R,S)]	1
CN1CCC(=C2c3ccccc3CC(=O)c3sccc32)CC1	1

I have this compound here, "COc1ccc(-c2cc(=O)c3c(O)cc(O)cc3o2)cc1O" , and I need its recorded phenotypically active.
0

I have this compound here, "Cc1cc(C)c(C)c(S(=O)(=O)Nc2ccc(N3CC[C@H](C(=O)O)C3)c3ccccc23)c1C" , and I need its recorded phenotypically active.
0

I have this compound here, "O=c1cc(-c2cccc3c2Sc2ccccc2S3)oc(N2CCOCC2)c1" , and I need its recorded phenotypically active.
1

I have this compound here, CCCCN1C[C@H](O)[C@@H](O)[C@H](O)[C@H]1CO [Miglustat hydrochloride] , and I need its recorded phenotypically active.
0

###

# Test system: WPMY1-CANX-COX4
# assayNotes: phenotypically active (imaging signature differs from DMSO and reproducible) at any of 0.3-9 uM (binary (1 = active, 0 = inactive)); higher = active
# assaySetup: treatment time: 24 h
Could you please pick one outcome from this set? active, inactive

Reference set (3 entries):
compound	categoryLabel
CNCCCN1c2ccccc2CCc2ccccc21	inactive
CN(C)CCCN1c2ccccc2Sc2ccc(C(F)(F)F)cc21	active
CCCCCCCCCCCCCCCCCCc1ccc(C(=O)/C=C/C(=O)O)cc1	inactive

Would you mind telling me which call this test gave "COc1cc(C)c(/C=C/C(C)=C/C=C/C(C)=C/C(=O)O)c(C)c1C" ?
active

###

Below, each entry is listed alongside its reported lowest phenotypically active concentration.
# System: WPMY1-TUBA1B-RELA
# assayNotes: lowest phenotypically active concentration; higher = less potent
# assaySetup: treatment time: 24 h
Write it as a number; the unit µM goes unstated.

structureSmiles	unitTag	endpointResult
CCc1cncnc1N1CCN(Cc2nc3cc(C(F)(F)F)ccc3[nH]2)CC1	µM	9

Any idea what lowest phenotypically active concentration came out for "CN1CCC(=C2c3ccccc3CC(=O)c3sccc32)CC1" on WPMY1-TUBA1B-RELA?
9

Any idea what lowest phenotypically active concentration came out for "N#Cc1c(C2CCNCC2)cc(-c2c(O)cccc2OCC2CC2)nc1N" on WPMY1-TUBA1B-RELA?
9

Any idea what lowest phenotypically active concentration came out for "COc1cc(OC)c2c(=O)[nH]c(-c3cc(C)c(OCCO)c(C)c3)nc2c1" on WPMY1-TUBA1B-RELA?
9

Any idea what lowest phenotypically active concentration came out for "CN(C)CC(=O)N1CCC[C@@H](n2nc(-c3ccc(Oc4ccccc4)cc3)c3c(N)ncnc32)C1" on WPMY1-TUBA1B-RELA?
3

Any idea what lowest phenotypically active concentration came out for "O=C1NCCCc2c1oc1ccc(O)cc21" on WPMY1-TUBA1B-RELA?
9
